target: Serine/threonine-protein kinase B-raf (Homo sapiens)
Sequence (P15056 whole entry): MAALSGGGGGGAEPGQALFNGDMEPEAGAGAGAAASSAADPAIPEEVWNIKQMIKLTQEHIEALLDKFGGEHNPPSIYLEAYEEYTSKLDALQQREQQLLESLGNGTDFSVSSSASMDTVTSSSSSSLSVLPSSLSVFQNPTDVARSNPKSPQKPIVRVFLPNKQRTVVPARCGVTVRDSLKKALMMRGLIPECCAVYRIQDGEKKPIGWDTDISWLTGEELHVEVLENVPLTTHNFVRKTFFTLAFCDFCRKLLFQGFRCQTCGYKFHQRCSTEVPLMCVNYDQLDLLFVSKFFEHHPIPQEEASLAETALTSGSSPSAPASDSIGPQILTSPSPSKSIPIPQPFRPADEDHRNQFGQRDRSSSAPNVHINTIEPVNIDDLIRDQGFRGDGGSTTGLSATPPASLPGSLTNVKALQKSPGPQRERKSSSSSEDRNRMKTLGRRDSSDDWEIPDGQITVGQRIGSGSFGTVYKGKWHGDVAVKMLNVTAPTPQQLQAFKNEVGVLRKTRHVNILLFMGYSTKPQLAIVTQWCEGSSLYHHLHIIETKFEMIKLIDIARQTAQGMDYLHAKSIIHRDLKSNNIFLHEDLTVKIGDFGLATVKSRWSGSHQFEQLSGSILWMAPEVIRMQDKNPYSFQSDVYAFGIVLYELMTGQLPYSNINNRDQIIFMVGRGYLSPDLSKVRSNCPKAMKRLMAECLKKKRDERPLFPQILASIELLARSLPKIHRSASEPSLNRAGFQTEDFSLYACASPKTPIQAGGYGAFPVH
OUTCOME MEASURE: pIC50
Hey, just a heads up that pIC50 is the negative log base 10 of the concentration in molar.

COc1ccc(C(=O)Nc2ccc(C)c(C(=O)Nc3ccc(-c4ncc[nH]4)nc3)c2)cc1; 4.39

// field: pIC50; key: O=C(Nc1ccc(Cl)c(C(=O)Nc2ccc(-c3ncc[nH]3)nc2)c1)c1ccc(Cl)c(C(F)(F)F)c1 ; value = 6.19

###

# pIC50 per record follows
tested on: HepG2; experiment: Cytotoxicity against human HepG2 cells assessed as reduction in cell viability after 72 hrs by MTT assay; assay type: functional, cell-based; conditions: HepG2, 72 h
The read-out pIC50 is expressed as -log10 of concentration in moles per litre.

CNC(=O)c1cc(Oc2ccc(NC(=O)Nc3ccc(Cl)c(C(F)(F)F)c3)cc2)ccn1; 5.24
Cc1ccc(NC(=O)c2ccc(Cl)c(C(F)(F)F)c2)cc1C(=O)Nc1ccc(-c2ncc[nH]2)nc1; 5.21
O=C(Nc1ccc(Cl)c(C(=O)Nc2ccc(-c3ncc[nH]3)nc2)c1)c1ccc(Cl)c(Cl)c1; 4.82

Entry O=C(Nc1ccc(Cl)c(C(F)(F)F)c1)c1ccc(Cl)c(C(=O)Nc2ccc(-c3ncc[nH]3)nc2)c1 , pIC50 reported as 5.49

// O=C(Nc1ccc(Cl)c(C(=O)Nc2ccc(-c3ncc[nH]3)nc2)c1)c1ccc(Cl)c(C(F)(F)F)c1 : pIC50 value = 4.86

The compound Cc1cc(C(=O)Nc2ccc(Cl)c(C(=O)Nc3ccc(-c4ncc[nH]4)nc3)c2)ccc1Cl showed pIC50 equal to 4.94

Record summary for O=C(Nc1ccc(Cl)c(Cl)c1)c1ccc(Cl)c(C(=O)Nc2ccc(-c3ncc[nH]3)nc2)c1 : reported pIC50 = 5.40

###

system: A-375; test: Growth inhibition of human A375 cells at 10 uM after 72 hrs by MTT assay; assay type: functional; settings: A-375, 72 h, read-out: GI
Examples of compounds with documented inhibition of growth at 10 µM follow.
Write the answer as a number in %, unit excluded.

O=C(Nc1cccc(C(F)(F)F)c1)c1ccc(Cl)c(C(=O)Nc2ccc(-c3ncc[nH]3)nc2)c1; 44.1
Cc1ccc(NC(=O)c2ccc(Cl)c(C(F)(F)F)c2)cc1C(=O)Nc1ccc(-c2ncc[nH]2)nc1; 42.9
O=C(Nc1ccc(Cl)c(C(=O)Nc2ccc(-c3ncc[nH]3)nc2)c1)c1cccc(C(F)(F)F)c1; 44.5

Entry COc1ccc(C(=O)Nc2ccc(C)c(C(=O)Nc3ccc(-c4ncc[nH]4)nc3)c2)cc1 , A-375 data, inhibition of growth at 10 µM value: 18.7

###

Quick reference for pIC50 among some compounds
target: Vascular endothelial growth factor receptor 2 (Homo sapiens, UniProt P35968); assay: Inhibition of human recombinant VEGFR2 incubated for 1 hr using [gamma-32P]ATP by top count assay
Sequence (P35968 whole entry): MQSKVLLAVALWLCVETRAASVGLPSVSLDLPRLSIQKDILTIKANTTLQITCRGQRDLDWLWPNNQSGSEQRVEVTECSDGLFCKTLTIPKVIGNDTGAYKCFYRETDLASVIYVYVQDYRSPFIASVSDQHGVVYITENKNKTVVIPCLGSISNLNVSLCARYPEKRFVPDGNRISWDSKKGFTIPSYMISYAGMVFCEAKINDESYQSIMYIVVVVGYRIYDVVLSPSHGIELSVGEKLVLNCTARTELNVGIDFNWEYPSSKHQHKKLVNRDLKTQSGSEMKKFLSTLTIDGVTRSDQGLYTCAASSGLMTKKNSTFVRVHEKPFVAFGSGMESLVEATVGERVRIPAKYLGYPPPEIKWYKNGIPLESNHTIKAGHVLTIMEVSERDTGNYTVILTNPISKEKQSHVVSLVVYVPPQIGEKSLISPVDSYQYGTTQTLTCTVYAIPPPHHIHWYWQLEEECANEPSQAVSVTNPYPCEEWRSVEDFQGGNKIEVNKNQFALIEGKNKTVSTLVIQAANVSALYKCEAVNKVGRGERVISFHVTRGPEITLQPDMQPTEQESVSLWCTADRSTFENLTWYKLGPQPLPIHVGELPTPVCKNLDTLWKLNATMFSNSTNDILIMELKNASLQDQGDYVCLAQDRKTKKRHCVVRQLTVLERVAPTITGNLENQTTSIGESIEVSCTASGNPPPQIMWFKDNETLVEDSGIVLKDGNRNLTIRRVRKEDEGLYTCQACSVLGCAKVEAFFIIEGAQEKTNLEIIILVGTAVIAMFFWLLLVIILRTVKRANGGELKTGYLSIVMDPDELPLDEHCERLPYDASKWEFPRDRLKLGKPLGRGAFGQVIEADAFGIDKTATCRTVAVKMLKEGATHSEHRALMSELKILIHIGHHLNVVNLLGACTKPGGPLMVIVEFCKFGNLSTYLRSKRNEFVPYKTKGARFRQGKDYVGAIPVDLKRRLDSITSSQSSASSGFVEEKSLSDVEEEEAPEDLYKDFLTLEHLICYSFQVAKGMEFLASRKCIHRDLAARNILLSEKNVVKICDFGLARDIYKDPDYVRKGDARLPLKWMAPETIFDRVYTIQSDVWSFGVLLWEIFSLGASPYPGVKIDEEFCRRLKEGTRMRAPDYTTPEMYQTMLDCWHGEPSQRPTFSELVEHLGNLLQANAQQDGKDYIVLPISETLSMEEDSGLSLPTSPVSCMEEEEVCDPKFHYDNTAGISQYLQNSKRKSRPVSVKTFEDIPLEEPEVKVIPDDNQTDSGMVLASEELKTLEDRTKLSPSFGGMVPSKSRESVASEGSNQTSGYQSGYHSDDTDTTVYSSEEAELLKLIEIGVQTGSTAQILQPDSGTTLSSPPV
Would you please state pIC50, meaning minus log10 of the concentration in mol/L, as a bare number?

O=C(Nc1ccc(Cl)c(C(F)(F)F)c1)c1ccc(Cl)c(C(=O)Nc2ccc(-c3ncc[nH]3)nc2)c1; 4.63

Summary line: O=C(Nc1ccc(Cl)c(C(=O)Nc2ccc(-c3ncc[nH]3)nc2)c1)c1ccc(Cl)c(C(F)(F)F)c1 , Vascular endothelial growth factor receptor 2 (Homo sapiens, UniProt P35968), reported pIC50 = 4.73

###

tested on: A-375; test: Cytotoxicity against human A375 cells assessed as reduction in cell viability after 72 hrs by MTT assay; type: functional, cell-based; conditions: A-375, 72 h
Reported pIC50 values follow for various molecules
Quick note: pIC50 means taking -log10 of the concentration in moles per liter.

Solved cases (3 shown):
Cc1ccc(NC(=O)c2ccc(Cl)c(C(F)(F)F)c2)cc1C(=O)Nc1ccc(-c2ncc[nH]2)nc1; 4.84
O=C(Nc1ccc(Cl)c(C(F)(F)F)c1)c1ccc(Cl)c(C(=O)Nc2ccc(-c3ncc[nH]3)nc2)c1; 5.53
Cc1cc(C(=O)Nc2ccc(Cl)c(C(=O)Nc3ccc(-c4ncc[nH]4)nc3)c2)ccc1Cl; 4.90

Bench note, A-375: CNC(=O)c1cc(Oc2ccc(NC(=O)Nc3ccc(Cl)c(C(F)(F)F)c3)cc2)ccn1 , pIC50 reads 4.79

# pIC50 measured on A-375 for item O=C(Nc1ccc(Cl)c(C(=O)Nc2ccc(-c3ncc[nH]3)nc2)c1)c1ccc(Cl)c(Cl)c1 = 5.03

# value of pIC50, A-375, item O=C(Nc1ccc(Cl)c(C(=O)Nc2ccc(-c3ncc[nH]3)nc2)c1)c1ccc(Cl)c(C(F)(F)F)c1 = 5.37

###

test system: A-375; experiment: Growth inhibition of human A375 cells at 10 uM after 72 hrs by MTT assay; type: functional; conditions: A-375, 72 h, read-out: GI
OUTCOME MEASURE: inhibition of growth at 10 µM (%)
Please respond with the number in % and leave the unit unwritten.

response.value for O=C(Nc1ccc(Cl)c(C(=O)Nc2ccc(-c3ncc[nH]3)nc2)c1)c1ccc(F)cc1 (field: inhibition of growth at 10 µM) = 30.1

Summary for this molecule, O=C(Nc1ccc(Cl)c(C(=O)Nc2ccc(-c3ncc[nH]3)nc2)c1)c1ccc(C(F)(F)F)cc1 : inhibition of growth at 10 µM is 47.6

###

Below, each of the compounds is paired with its reported inhibition of growth at 10 µM value.
test system: A-375; assay: Growth inhibition of human A375 cells at 10 uM after 72 hrs by MTT assay; format: functional; settings: A-375, 72 h, read-out: GI
API: value field is a number in %; no unit string.

Recorded result, Cc1cc(C(=O)Nc2ccc(Cl)c(C(=O)Nc3ccc(-c4ncc[nH]4)nc3)c2)ccc1Cl , inhibition of growth at 10 µM: 43.9

###

system: A-375; experiment: Growth inhibition of human A375 cells at 10 uM after 72 hrs by MTT assay; assay type: functional; conditions: A-375, 72 h, read-out: GI
Measured inhibition of growth at 10 µM of individual entries
Reply with the number and its unit after it.

O=C(Nc1ccc(Cl)c(C(F)(F)F)c1)c1ccc(Cl)c(C(=O)Nc2ccc(-c3ncc[nH]3)nc2)c1; 64.4%
O=C(Nc1ccc(Cl)c(C(=O)Nc2ccc(-c3ncc[nH]3)nc2)c1)c1ccc(Cl)c(Cl)c1; 46.1%
Cc1ccc(NC(=O)c2cccc(Br)c2)cc1C(=O)Nc1ccc(-c2ncc[nH]2)nc1; 31.9%
O=C(Nc1ccc(Cl)c(Cl)c1)c1ccc(Cl)c(C(=O)Nc2ccc(-c3ncc[nH]3)nc2)c1; 28.4%
Cc1ccc(NC(=O)c2cccc(F)c2)cc1C(=O)Nc1ccc(-c2ncc[nH]2)nc1; 27.9%

Proceed to the following item.
O=C(Nc1ccc(Cl)c(C(=O)Nc2ccc(-c3ncc[nH]3)nc2)c1)c1ccc(Cl)c(Br)c1 has a reported inhibition of growth at 10 µM of 38.4%

###

tested on: NCI-H522; assay: Growth inhibition of human NCI-H522 cells at 10 uM after 72 hrs by MTT assay; format: functional; conditions: NCI-H522, 72 h, read-out: GI
The label depends only on inhibition of growth at 10 µM: Condition met if it is at least 10%, Condition not met if it is smaller.

Check out these entries, answers already filled in.
Cc1ccc(NC(=O)c2ccc(Br)cc2)cc1C(=O)Nc1ccc(-c2ncc[nH]2)nc1; Condition met
O=C(Nc1ccc(Cl)c(C(=O)Nc2ccc(-c3ncc[nH]3)nc2)c1)c1ccc(C(F)(F)F)cc1; Condition not met
O=C(Nc1ccc(Cl)c(Cl)c1)c1ccc(Cl)c(C(=O)Nc2ccc(-c3ncc[nH]3)nc2)c1; Condition not met
O=C(Nc1cccc(C(F)(F)F)c1)c1ccc(Cl)c(C(=O)Nc2ccc(-c3ncc[nH]3)nc2)c1; Condition not met
Cc1ccc(NC(=O)c2ccc(C(F)(F)F)cc2)cc1C(=O)Nc1ccc(-c2ncc[nH]2)nc1; Condition met

IN: hey, is inhibition of growth at 10 µM for this one >= 10%? O=C(Nc1ccc(Cl)c(C(F)(F)F)c1)c1ccc(Cl)c(C(=O)Nc2ccc(-c3ncc[nH]3)nc2)c1
OUT: Condition not met

IN: Please indicate if the recorded inhibition of growth at 10 µM for Cc1ccc(C(=O)Nc2ccc(C)c(C(=O)Nc3ccc(-c4ncc[nH]4)nc3)c2)cc1 meets or exceeds 10%.
OUT: Condition met

IN: Record CNC(=O)c1cc(Oc2ccc(NC(=O)Nc3ccc(Cl)c(C(F)(F)F)c3)cc2)ccn1 [SORAFENIB] ; criterion: inhibition of growth at 10 µM no lower than 10%. Met?
OUT: Condition met

###

system: MDA-MB-453; assay: Growth inhibition of human MDA-MB-453 cells at 10 uM after 72 hrs by MTT assay; type: functional; conditions: MDA-MB-453, 72 h, read-out: GI
OUTCOME MEASURE: inhibition of growth at 10 µM (%)
The answer is to be given in %; state only the numeric part.

Solved entries (count: 8):
O=C(Nc1ccc(Cl)c(Cl)c1)c1ccc(Cl)c(C(=O)Nc2ccc(-c3ncc[nH]3)nc2)c1; 36.3
O=C(Nc1ccc(Cl)c(C(=O)Nc2ccc(-c3ncc[nH]3)nc2)c1)c1cccc(Cl)c1; 10.7
O=C(Nc1ccc(Cl)c(C(=O)Nc2ccc(-c3ncc[nH]3)nc2)c1)c1cccc(C(F)(F)F)c1; 46.1
O=C(Nc1ccc(Cl)c(C(=O)Nc2ccc(-c3ncc[nH]3)nc2)c1)c1ccc(C(F)(F)F)cc1; 48.4
O=C(Nc1cccc(Cl)c1)c1ccc(Cl)c(C(=O)Nc2ccc(-c3ncc[nH]3)nc2)c1; 11.6
O=C(Nc1ccc(Cl)c(C(F)(F)F)c1)c1ccc(Cl)c(C(=O)Nc2ccc(-c3ncc[nH]3)nc2)c1; 52.9
Cc1ccc(NC(=O)c2ccc(C(F)(F)F)cc2)cc1C(=O)Nc1ccc(-c2ncc[nH]2)nc1; 26
COc1cccc(C(=O)Nc2ccc(Cl)c(C(=O)Nc3ccc(-c4ncc[nH]4)nc3)c2)c1; 19.4

We next turn to a different compound, shown below.
// inhibition of growth at 10 µM value for Cc1ccc(NC(=O)c2cccc([N+](=O)[O-])c2)cc1C(=O)Nc1ccc(-c2ncc[nH]2)nc1 : 22.3
